Exercise: state measured pIC50 for each of the molecules provided.
biological target: HDAC3 (Homo sapiens (Human), UniProt O15379); assay: HDAC3 in vitro inhibition, dose response; type: biochemical; details: Table 2; read-out: HDAC 3 IC50
Sequence (O15379 whole entry): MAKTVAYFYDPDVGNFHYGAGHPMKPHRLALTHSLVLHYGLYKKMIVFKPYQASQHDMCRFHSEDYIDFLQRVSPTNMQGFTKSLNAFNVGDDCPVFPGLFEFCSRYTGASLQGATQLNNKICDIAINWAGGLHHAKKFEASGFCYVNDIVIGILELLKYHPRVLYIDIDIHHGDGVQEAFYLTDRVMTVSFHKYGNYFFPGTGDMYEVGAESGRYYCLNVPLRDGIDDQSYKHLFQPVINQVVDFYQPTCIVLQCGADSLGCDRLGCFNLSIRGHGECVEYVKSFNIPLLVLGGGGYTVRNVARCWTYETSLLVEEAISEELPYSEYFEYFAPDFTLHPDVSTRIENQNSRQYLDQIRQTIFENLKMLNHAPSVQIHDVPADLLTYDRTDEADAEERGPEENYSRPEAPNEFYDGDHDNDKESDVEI
Sequence (Q9Y618 395-489 partner): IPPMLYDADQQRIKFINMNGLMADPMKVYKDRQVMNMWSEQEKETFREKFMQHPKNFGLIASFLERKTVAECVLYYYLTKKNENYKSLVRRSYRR
Numbers only, as −log10 of the molar value.

Solved entries:
CCCCNNC(=O)c1ccc(OC(F)(F)F)cc1
5.87
CCCCNNC(=O)c1ccc(N(C)C)cc1 [RLS2-131, N′-butyl-4-(dimethylamino)benzohydrazide]
6.92
CCCNNC(=O)c1ccc2ccccc2c1 [RLS2-255, N′-propyl-2-naphthohydrazide]
5.78
CCCCNNC(=O)c1ccc(-c2cccc(F)c2F)cc1
8.22

Next molecule, please.
Give its pIC50 value. Item: O=C(NNCC1CCCC1)c1ccc(Br)cc1
5.16

----------
target: HDAC1 (Homo sapiens (Human), UniProt Q13547); assay: HDAC1 in vitro inhibition, dose response; type: biochemical; details: Table 2; read-out: HDAC 1 IC50
Sequence (Q13547 whole entry): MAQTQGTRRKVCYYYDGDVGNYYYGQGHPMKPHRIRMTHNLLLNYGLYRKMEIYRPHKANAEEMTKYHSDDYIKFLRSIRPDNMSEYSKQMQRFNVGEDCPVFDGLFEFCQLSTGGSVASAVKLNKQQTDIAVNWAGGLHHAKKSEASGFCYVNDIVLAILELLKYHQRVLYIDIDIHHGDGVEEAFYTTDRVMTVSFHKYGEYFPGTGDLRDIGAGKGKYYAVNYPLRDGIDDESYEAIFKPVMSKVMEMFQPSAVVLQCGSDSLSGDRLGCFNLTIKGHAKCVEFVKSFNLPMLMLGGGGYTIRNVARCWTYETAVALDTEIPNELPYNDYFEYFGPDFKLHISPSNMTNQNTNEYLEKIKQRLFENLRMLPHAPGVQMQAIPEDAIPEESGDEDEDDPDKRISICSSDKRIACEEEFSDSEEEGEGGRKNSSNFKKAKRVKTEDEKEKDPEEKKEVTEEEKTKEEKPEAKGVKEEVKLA
Exercise: state measured IC50 for each of the compounds provided.

CCCCCCNNC(=O)c1ccc(Br)cc1 [RLS2-284, 4-bromo-N′-hexylbenzohydrazide]
10.3 µM
CCCCNNC(=O)c1cc2ccccc2cc1O [RLS2-210, N′-butyl-3-hydroxy-2-naphthohydrazide]
> 50 µM
CCCCNNC(=O)c1cccc(C(F)(F)F)c1
35.3 µM
CCCCNNC(=O)c1ccc(F)cc1 [RLS2-123, N′-butyl-4-fluorobenzohydrazide]
13.2 µM

Okay, here is my list. What is IC50 for each of these?
1. CCCCNNC(=O)c1ccc(-c2cncnc2)cc1
2. CCNNC(=O)c1ccc2ccccc2c1 [RLS2-240, N′-ethyl-2-naphthohydrazide]
3. CCCCNNC(=O)c1ccc(C(C)(C)C)cc1 [RLS2-211, 4-tert-butyl-N′-butylbenzohydrazide]
4. CCCCNNC(=O)c1ccc(-c2ccccc2)cc1 [RLS3-43, N′-butylbiphenyl-4-carbohydrazide]
5. CCCNNC(=O)c1ccc(Br)cc1 [RLS2-137, 4-bromo-N′-propylbenzohydrazide]
6. O=C(NNCCCC1CCCC1)c1ccc2ccccc2c1

1.24 µM
> 50 µM
0.19 µM
0.09 µM
1.7 µM
> 50 µM

Okay, here is my list. What is IC50 for each of these?
1. CCCCNNC(=O)c1cccnc1 [RLS2-289, N′-butylnicotinohydrazide]
2. CCCCNNC(=O)c1ccc(N(C)C)cc1 [RLS2-131, N′-butyl-4-(dimethylamino)benzohydrazide]
3. Cc1ccc(C(=O)NNC(C)(C)C)cc1 [RLS2-187, N′-tert-butyl-4-methylbenzohydrazide]
4. CCCCNNC(=O)c1ccncc1 [RLS2-290, N′-butylisonicotinohydrazide]
5. CCCCNNC(=O)c1cccc(I)c1 [RLS3-5, N′-butyl-3-iodobenzohydrazide]
6. CCCCNNC(=O)c1ccc(-c2cc(C)cc(F)c2)cc1

["14.5 µM", "0.23 µM", "> 50 µM", "4.28 µM", "31.4 µM", "0.76 µM"]

Okay, here is my list. What is IC50 for each of these?
1. CCCCCCNNC(=O)c1ccc(C(C)(C)C)cc1 [RLS2-283, 4-tert-butyl-N′-hexylbenzohydrazide]
2. CCCCNNC(=O)c1ccc(OC)cc1 [RLS2-126, N′-butyl-4-methoxybenzohydrazide]
3. CCCCNNC(=O)c1ccc(OC)c(OC)c1 [RLS3-11, N′-butyl-3,4-dimethoxybenzohydrazide]
4. CCCCNNC(=O)c1ccc(OCC)c(OCC)c1 [RLS3-14, N′-butyl-3,4-diethoxybenzohydrazide]
5. CCCCNNC(=O)c1ccccc1F [RLS2-305, N′-butyl-2-fluorobenzohydrazide]

1: 2.25 µM; 2: 1.91 µM; 3: 22.2 µM; 4: 11.8 µM; 5: 72.3 µM

----------
biological target: HDAC4 (Homo sapiens (Human)); assay: HDAC4 in vitro inhibition, dose response; assay type: biochemical; conditions: Table 1; read-out: Inhibitory Potency (IC50) HDAC 4
Sequence (P56524 whole entry): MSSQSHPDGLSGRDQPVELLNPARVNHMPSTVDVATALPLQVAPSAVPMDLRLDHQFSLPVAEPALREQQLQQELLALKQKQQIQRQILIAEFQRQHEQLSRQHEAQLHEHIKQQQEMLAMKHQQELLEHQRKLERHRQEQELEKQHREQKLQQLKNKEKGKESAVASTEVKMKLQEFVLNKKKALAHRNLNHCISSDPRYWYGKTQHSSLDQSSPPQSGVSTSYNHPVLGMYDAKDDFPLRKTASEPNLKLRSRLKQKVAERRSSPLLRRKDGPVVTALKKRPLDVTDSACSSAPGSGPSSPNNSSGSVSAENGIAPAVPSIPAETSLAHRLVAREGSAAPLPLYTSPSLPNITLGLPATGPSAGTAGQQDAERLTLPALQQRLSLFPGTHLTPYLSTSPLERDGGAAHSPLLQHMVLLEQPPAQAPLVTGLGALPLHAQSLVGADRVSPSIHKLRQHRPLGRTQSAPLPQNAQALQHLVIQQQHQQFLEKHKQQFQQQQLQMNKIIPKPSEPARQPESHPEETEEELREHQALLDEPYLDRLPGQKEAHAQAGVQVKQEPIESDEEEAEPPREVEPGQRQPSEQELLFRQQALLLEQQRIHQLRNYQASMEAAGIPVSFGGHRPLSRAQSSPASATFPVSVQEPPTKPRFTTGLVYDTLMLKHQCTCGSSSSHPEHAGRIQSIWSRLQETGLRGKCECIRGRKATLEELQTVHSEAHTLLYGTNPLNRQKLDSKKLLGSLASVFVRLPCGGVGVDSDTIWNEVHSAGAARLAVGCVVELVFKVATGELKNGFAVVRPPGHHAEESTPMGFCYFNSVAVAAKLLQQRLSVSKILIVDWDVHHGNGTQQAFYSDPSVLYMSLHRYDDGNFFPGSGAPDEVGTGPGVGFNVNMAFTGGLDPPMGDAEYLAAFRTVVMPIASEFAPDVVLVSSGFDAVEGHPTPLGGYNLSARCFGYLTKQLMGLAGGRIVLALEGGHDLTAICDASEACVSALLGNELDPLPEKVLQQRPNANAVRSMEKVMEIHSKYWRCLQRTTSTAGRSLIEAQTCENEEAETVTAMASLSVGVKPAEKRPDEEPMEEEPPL
pIC50: −log10 of the molar value.
recorded_metric: pIC50

Hi! What's the reported pIC50 for CCCCNNC(=O)c1ccc(Br)cc1 [UF010, 4-bromo-N′-butylbenzohydrazide] on HDAC4 (Homo sapiens (Human))?
< 4.00

----------
molecular target: HDAC7 (Homo sapiens (Human), UniProt Q8WUI4); experiment: HDAC7 in vitro inhibition, dose response; type: biochemical; conditions: Table 1; read-out: Inhibitory Potency (IC50) HDAC 7
Sequence (Q8WUI4 whole entry): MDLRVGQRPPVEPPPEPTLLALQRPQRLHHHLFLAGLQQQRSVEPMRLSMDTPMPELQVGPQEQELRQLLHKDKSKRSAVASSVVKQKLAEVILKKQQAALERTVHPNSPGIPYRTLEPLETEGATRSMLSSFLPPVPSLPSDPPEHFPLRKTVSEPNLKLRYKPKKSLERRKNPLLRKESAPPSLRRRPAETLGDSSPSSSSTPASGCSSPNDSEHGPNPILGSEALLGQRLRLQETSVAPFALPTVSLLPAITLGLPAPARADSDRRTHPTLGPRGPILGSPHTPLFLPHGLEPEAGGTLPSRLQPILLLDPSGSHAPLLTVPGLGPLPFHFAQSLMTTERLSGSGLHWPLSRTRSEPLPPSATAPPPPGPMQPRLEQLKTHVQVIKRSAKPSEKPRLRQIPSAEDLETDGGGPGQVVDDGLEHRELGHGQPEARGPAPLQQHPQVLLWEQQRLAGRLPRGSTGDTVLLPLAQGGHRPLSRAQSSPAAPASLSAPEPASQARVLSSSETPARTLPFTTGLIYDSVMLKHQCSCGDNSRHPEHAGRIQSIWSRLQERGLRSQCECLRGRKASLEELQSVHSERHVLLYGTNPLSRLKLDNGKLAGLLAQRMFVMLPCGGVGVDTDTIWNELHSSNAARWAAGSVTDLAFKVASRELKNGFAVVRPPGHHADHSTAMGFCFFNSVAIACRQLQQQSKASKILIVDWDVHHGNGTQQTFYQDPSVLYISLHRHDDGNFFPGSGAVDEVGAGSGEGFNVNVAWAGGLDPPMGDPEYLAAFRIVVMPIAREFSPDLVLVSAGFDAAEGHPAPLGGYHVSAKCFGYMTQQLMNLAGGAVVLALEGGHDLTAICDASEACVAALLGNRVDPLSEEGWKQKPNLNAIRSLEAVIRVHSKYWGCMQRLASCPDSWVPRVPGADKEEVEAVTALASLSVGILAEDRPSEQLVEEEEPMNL
pIC50: −log10 of the molar value.
recorded_metric: pIC50

Give its pIC50 value. Item: CCCCNNC(=O)c1ccc(Br)cc1 [UF010, 4-bromo-N′-butylbenzohydrazide]
< 4.00

----------
experiment: in vivo; conditions: mouse, plasma, po, 80 mg/kg
recorded_metric: half-life (h)
Give bare numbers, in h.

Give its half-life value. Item: CCCCNNC(=O)c1ccc(Br)cc1 [UF010, 4-bromo-N′-butylbenzohydrazide]
1.24

----------
biological target: HDAC9 (Homo sapiens (Human), UniProt Q9UKV0); assay: HDAC9 in vitro inhibition, dose response; type: biochemical; conditions: Table 1; read-out: Inhibitory Potency (IC50) HDAC 9
Sequence (Q9UKV0 whole entry): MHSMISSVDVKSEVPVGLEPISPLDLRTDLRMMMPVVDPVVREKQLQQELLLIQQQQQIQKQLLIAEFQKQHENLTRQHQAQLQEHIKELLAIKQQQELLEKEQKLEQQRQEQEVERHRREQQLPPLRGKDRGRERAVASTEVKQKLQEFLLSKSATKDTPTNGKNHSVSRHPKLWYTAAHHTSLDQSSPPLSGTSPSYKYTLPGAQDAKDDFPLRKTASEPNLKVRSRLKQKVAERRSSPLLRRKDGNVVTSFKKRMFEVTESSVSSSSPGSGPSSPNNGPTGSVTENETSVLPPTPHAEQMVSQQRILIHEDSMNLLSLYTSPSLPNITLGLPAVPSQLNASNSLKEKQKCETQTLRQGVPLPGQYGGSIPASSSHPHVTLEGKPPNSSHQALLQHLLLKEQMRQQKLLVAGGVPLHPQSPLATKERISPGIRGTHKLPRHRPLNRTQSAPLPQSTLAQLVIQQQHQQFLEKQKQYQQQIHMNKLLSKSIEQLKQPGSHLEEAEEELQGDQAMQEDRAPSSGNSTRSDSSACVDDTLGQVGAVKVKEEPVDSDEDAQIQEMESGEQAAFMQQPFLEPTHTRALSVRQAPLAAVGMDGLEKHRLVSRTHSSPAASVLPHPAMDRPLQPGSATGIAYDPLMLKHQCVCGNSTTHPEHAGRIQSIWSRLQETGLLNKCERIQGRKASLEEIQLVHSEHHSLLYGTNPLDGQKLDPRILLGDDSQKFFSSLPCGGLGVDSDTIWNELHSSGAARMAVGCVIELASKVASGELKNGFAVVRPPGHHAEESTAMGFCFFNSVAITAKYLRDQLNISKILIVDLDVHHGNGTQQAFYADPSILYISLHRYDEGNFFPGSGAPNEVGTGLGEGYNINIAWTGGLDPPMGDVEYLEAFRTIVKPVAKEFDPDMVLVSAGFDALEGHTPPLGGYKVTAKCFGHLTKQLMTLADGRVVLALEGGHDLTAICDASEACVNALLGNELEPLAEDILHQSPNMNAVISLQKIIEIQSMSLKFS
recorded_metric: IC50

Give its IC50 value. Item: CCCCNNC(=O)c1ccc(Br)cc1 [UF010, 4-bromo-N′-butylbenzohydrazide]
> 100 µM

----------
target: HDAC3 (Homo sapiens (Human)); assay: HDAC3 in vitro inhibition, dose response; format: biochemical; details: Table 2; read-out: HDAC 3 IC50
recorded_metric: IC50 (nM)
One number for each entry, in nM.

Solved entries:
CCCNNC(=O)c1ccc(Br)cc1 [RLS2-137, 4-bromo-N′-propylbenzohydrazide]
220
CCCCNNC(=O)c1ccc(-c2cncnc2)cc1 [SR-4369]
2290
CCCCNNC(=O)c1ccc(-c2cc(C)cc(F)c2)cc1 [SR-4372]
380
CCCCCCNNC(=O)c1ccc(C(C)(C)C)cc1 [RLS2-283, 4-tert-butyl-N′-hexylbenzohydrazide]
8080
CCCCCCNNC(=O)c1ccc(Br)cc1 [RLS2-284, 4-bromo-N′-hexylbenzohydrazide]
20000

Okay, here is my list. What is IC50 for each of these?
1. CCCCNNC(=O)c1ccccc1F [RLS2-305, N′-butyl-2-fluorobenzohydrazide]
2. CCCCNNC(=O)c1ccc(F)cc1 [RLS2-123, N′-butyl-4-fluorobenzohydrazide]
3. CCCCNNC(=O)c1ccc(C(C)(C)C)cc1 [RLS2-211, 4-tert-butyl-N′-butylbenzohydrazide]
4. CCCCNNC(=O)c1cccc(C(F)(F)F)c1 [RLS3-6]

1: 42400; 2: 1780; 3: 70; 4: 1880

Give its IC50 value. Item: CCCCNNC(=O)c1ccc(-c2cc(C(=O)OCC)ccc2F)cc1 [SR-4373]
420

----------
assay: Oral tolerability / maximal tolerated dose in mice; settings: mouse, in vivo, po, 80 mg/kg
recorded_metric: MTD

Give its MTD value. Item: CCCCNNC(=O)c1ccc(Br)cc1 [UF010, 4-bromo-N′-butylbenzohydrazide]
> 80 mg/kg

----------
biological target: HDAC6 (Homo sapiens (Human), UniProt Q9UBN7); assay: HDAC6 in vitro inhibition, dose response; assay type: biochemical; settings: Table 2; read-out: HDAC 6 IC50
Exercise: state measured pIC50 for each of the compounds provided.
Answers are plain numbers, as −log10 of the molar value.

CCCCNNC(=O)c1ccc(Br)cc1 [UF010, 4-bromo-N′-butylbenzohydrazide]
5.04
CCCCNNC(=O)c1ccc(C(C)(C)C)cc1 [RLS2-211, 4-tert-butyl-N′-butylbenzohydrazide]
7.35
CCCCNNC(=O)c1ccc(CN=[N+]=[N-])cc1 [RLS2-312, 4-(azidomethyl)-N′-butylbenzohydrazide]
8.05
CCCCNNC(=O)c1ccc(-c2cc(C(=O)OCC)ccc2F)cc1
5.19
CCCCNNC(=O)c1ccc(-c2cccc(F)c2F)cc1
5.43

Next compound, please.
Give its pIC50 value. Item: CCCCNNC(=O)c1ccc(-c2cc(C)cc(F)c2)cc1
5.43

----------
target: UniProt Q9UBN7; experiment: HDAC6 in vitro inhibition, dose response; format: biochemical; settings: Table 1; read-out: Inhibitory Potency (IC50) HDAC 6
recorded_metric: pIC50
Give bare numbers, as −log10 of the molar value.

Hi! What's the reported pIC50 for CCCCNNC(=O)c1ccc(Br)cc1 [UF010, 4-bromo-N′-butylbenzohydrazide] on UniProt Q9UBN7?
5.04

----------
target: HDAC2 (Homo sapiens (Human)); assay: HDAC2 in vitro inhibition, dose response; assay type: biochemical; conditions: Table 2; read-out: HDAC 2 IC50
Sequence (Q92769 whole entry): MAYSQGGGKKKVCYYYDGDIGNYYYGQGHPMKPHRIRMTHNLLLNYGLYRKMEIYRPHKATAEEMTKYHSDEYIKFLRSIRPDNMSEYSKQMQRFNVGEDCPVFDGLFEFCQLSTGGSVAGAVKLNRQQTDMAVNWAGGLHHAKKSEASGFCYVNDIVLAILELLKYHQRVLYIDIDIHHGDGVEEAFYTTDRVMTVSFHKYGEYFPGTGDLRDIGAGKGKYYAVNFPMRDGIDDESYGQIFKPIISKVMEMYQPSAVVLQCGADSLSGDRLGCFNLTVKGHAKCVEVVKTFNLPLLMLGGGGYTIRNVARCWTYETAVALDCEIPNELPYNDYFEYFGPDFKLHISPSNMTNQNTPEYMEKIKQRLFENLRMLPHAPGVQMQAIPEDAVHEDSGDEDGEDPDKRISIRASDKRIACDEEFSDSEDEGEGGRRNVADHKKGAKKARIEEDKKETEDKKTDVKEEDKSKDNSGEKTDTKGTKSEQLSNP
Exercise: state measured IC50 for each of the compounds provided.

Solved entries:
Cc1ccc(C(=O)NNC(C)(C)C)cc1 [RLS2-187, N′-tert-butyl-4-methylbenzohydrazide]
> 50 µM
CCCCNNC(=O)c1cccc(OCC)c1 [RLS2-303, N′-butyl-3-ethoxybenzohydrazide]
> 50 µM

Give its IC50 value. Item: O=C(NNCC1CCCC1)c1ccc2ccccc2c1 [RLS2-254]
> 50 µM

----------
target: HDAC1 (Homo sapiens (Human)); assay: HDAC1 in vitro inhibition, dose response; type: biochemical; conditions: Table 2; read-out: HDAC 1 IC50
recorded_metric: pIC50
Give bare numbers, as −log10 of the molar value.

CCCCNNC(=O)c1ccc(CN=[N+]=[N-])cc1 [RLS2-312, 4-(azidomethyl)-N′-butylbenzohydrazide]
6.49
CCCCNNC(=O)c1ccc2ccccc2c1 [RLS2-238, N′-butyl-2-naphthohydrazide]
5.37

Okay, here is my list. What is pIC50 for each of these?
1. CCCCNNC(=O)c1ccc(OC(F)(F)F)cc1
2. O=C(NNCC1CCCC1)c1ccc(Br)cc1
3. CCCNNC(=O)c1ccc2ccccc2c1 [RLS2-255, N′-propyl-2-naphthohydrazide]

[5.05, 5.06, 5.46]

Okay, here is my list. What is pIC50 for each of these?
1. CCCCNNC(=O)c1ccc(Br)cc1 [UF010, 4-bromo-N′-butylbenzohydrazide]
2. CCCCNNC(=O)c1ccc(-c2cccc(F)c2F)cc1
3. CCCCNNC(=O)c1ccc(Cl)cc1 [RLS2-133, N′-butyl-4-chlorobenzohydrazide]

1. 6.30
2. 6.89
3. 5.43

The reported numbers originate from patent US10807944B2.
